- Target: Solute carrier organic anion transporter family member 1B1 (Homo sapiens, UniProt Q9Y6L6)
- Sequence (Q9Y6L6 whole entry): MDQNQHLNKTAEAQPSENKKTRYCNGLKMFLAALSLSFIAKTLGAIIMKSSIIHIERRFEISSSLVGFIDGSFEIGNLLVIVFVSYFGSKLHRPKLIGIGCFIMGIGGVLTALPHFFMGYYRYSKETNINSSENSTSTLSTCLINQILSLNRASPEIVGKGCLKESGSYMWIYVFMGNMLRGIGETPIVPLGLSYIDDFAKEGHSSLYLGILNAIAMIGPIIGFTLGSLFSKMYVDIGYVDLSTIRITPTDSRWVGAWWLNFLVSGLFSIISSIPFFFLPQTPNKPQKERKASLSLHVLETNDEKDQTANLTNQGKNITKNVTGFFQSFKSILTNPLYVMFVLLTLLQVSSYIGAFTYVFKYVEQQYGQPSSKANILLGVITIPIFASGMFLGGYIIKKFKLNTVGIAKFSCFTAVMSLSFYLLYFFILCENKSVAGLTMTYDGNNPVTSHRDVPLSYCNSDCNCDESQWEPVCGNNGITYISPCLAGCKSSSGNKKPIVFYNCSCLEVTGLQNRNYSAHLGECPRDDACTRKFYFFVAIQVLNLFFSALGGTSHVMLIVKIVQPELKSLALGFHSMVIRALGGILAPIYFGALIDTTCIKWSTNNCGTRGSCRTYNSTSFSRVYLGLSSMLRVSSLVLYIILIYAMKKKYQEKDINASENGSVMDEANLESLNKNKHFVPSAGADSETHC
- Condition parameters: chinese hamster, cho, 10 µM
Quantity name: residual activity (%)
Numbers only; they are read as %.

Fill in residual activity for record CC(C(=O)O)c1ccc2c(c1)[nH]c1ccc(Cl)cc12 (configuration not stated) 47.72

Fill in residual activity for record Cn1c(=O)c2c(ncn2C)n(C)c1=O 103.6

Fill in residual activity for record Cc1cccc(N(C)C(=S)Oc2ccc3ccccc3c2)c1 [TOLNAFTATE] 126.3

Fill in residual activity for record COc1cc(O)c2c(c1)C(=O)c1cc(C)cc(O)c1C2=O 111.9

Fill in residual activity for record C[C@@H]1O[C@@H](O[C@H]2CC[C@]3(C=O)[C@H]4CC[C@]5(C)[C@@H](C6=CC(=O)OC6)CC[C@]5(O)[C@@H]4CC[C@]3(O)C2)[C@H](O)[C@H](O)[C@H]1O 102.3

Fill in residual activity for record CN1C(=O)CC[C@H]1c1cccnc1 106.5

Fill in residual activity for record C[C@@H]1O[C@@H](O[C@H]2[C@H](Oc3cc(O)c4c(c3)O[C@H](c3ccc(O)cc3)CC4=O)O[C@H](CO)[C@@H](O)[C@@H]2O)[C@H](O)[C@H](O)[C@H]1O 100.1

Fill in residual activity for record Cc1cc(C(C)(C)C)cc(C)c1CC1=NCCN1.Cl [XYLOMETAZOLINE HYDROCHLORIDE] 86.29

Fill in residual activity for record COc1ccc2c(c1)OCC(Cc1ccc(OC)c(OC)c1)C2=O (configuration not stated) 174.5

Fill in residual activity for record COc1cc2c(cc1OC)[C@@H]1C(=O)c3ccc(O)c(CC=C(C)C)c3O[C@@H]1CO2 53.2

Fill in residual activity for record Cc1ccc(N(CC2=NCCN2)c2cccc(O)c2)cc1.Cl [PHENTOLAMINE HYDROCHLORIDE] 85.39

Fill in residual activity for record CN1CCN(CCCN2c3ccccc3Sc3ccc(C(F)(F)F)cc32)CC1.Cl 146.4

Fill in residual activity for record NCC[C@H](O)C(=O)N[C@@H]1C[C@H](N)[C@@H](O[C@H]2O[C@H](CN)[C@@H](O)[C@H](O)[C@H]2O)[C@H](O)[C@H]1O[C@H]1O[C@H](CO)[C@@H](O)[C@H](N)[C@H]1O.O=S(=O)(O)O 72.99

Fill in residual activity for record CCCNC(=O)NS(=O)(=O)c1ccc(Cl)cc1 [CHLORPROPAMIDE] 102

Fill in residual activity for record CCn1cc(C(=O)O)c(=O)c2cnc(N3CCNCC3)nc21 111.8

Fill in residual activity for record Cc1onc(-c2ccccc2)c1-c1ccc(S(N)(=O)=O)cc1 120.4

Fill in residual activity for record C[C@H]1C(=O)O[C@@H]2CCN3CC=C(COC(=O)[C@](C)(O)[C@]1(C)O)[C@H]23 100.7
